biological target: HLA-A*33:01; experiment: IEDB peptide-MHC binding, purified MHC/competitive/radioactivity; filed as Kd, often an IC50 or EC50 that approximates it; bounds were set here for any values at or beyond the usual limits of such assays; conditions: source organism: Lassa virus Josiah
Readout kind: Kd

Record ICKMPLPTK . Reported Kd: ≥ 47.4 µM

====

target: HLA-A*02:01; assay: IEDB peptide-MHC binding, purified MHC/competitive/fluorescence; bounds were set here for any values at or beyond the usual limits of such assays; details: source organism: West Nile virus NY-99
Readout kind: pIC50
# reply with the number alone; pIC50 is -log10 of concentration in mol/L

Entry YTMDGEYRL ; pIC50 = 6.54

====

molecular target: HLA-A*32:01; test: IEDB peptide-MHC binding, purified MHC/competitive/radioactivity; filed as Kd, often an IC50 or EC50 that approximates it; bounds were set here for any values at or beyond the usual limits of such assays; conditions: source organism: Mammarenavirus guanaritoense
pKd: −log10 of the molar value.
Readout kind: pKd

response.value for AVFQPSTGNY (field: pKd) = ≤ 4.16

====

molecular target: HLA-B*35:01; test: IEDB peptide-MHC binding, purified MHC/competitive/fluorescence; filed as Kd, often an IC50 or EC50 that approximates it; bounds were set here for any values at or beyond the usual limits of such assays; conditions: source organism: Bacillus anthracis str. A0488
Readout kind: Kd (nM)
Give a bare numeral; the unit nM is implied.

Observed Kd on HLA-B*35:01, entry MTVFSYKAF , equals 154

====

target: HLA-B*44:02; assay: IEDB peptide-MHC binding, purified MHC/competitive/radioactivity; filed as Kd, often an IC50 or EC50 that approximates it; bounds were set here for any values at or beyond the usual limits of such assays; details: source organism: Dengue virus 3 Singapore/8120/1995
Readout kind: Kd

Data point: EEHSSTWHY ; Kd = 17.6 nM

====

biological target: HLA-A*11:01; experiment: IEDB peptide-MHC binding, purified MHC/competitive/radioactivity; filed as Kd, often an IC50 or EC50 that approximates it; bounds were set here for any values at or beyond the usual limits of such assays; settings: source organism: Mammarenavirus juninense
Readout kind: Kd

Noted for NYTKFWYVNH : its Kd reads ≥ 56.9 µM

====

target: HLA-B*53:01; experiment: IEDB peptide-MHC binding, purified MHC/competitive/radioactivity; filed as Kd, often an IC50 or EC50 that approximates it; bounds were set here for any values at or beyond the usual limits of such assays; details: source organism: Mammarenavirus whitewaterense
Readout kind: pKd
Value format note: pKd is -log10 of concentration (mol/L); just state the number.

Please fill in: pKd reported for GPFEASWAI = 6.60

====

biological target: HLA-B*35:01; experiment: IEDB peptide-MHC binding, purified MHC/competitive/radioactivity; filed as Kd, often an IC50 or EC50 that approximates it; bounds were set here for any values at or beyond the usual limits of such assays; conditions: source organism: Dengue virus 4 Philippines/H241/1956
# pKd values compiled below
Schema: pKd number; meaning minus log10 of the concentration expressed in molar units.

Illustrative cases are given below, each with its answer.
INSERT INTO results (entry_sequence, meas_value) VALUES
  ('YPLAIPVTM', 8.71),
  ('IPNHGVTAT', 5.64),
  ('MPVMKRYSAP', 6.30);

Continue with the sequence presented below.
# sequence WAYHGSYEA ; its pKd = 6.78

====

biological target: HLA-B*18:01; assay: IEDB peptide-MHC binding, purified MHC/direct/fluorescence; filed as Kd, often an IC50 or EC50 that approximates it; bounds were set here for any values at or beyond the usual limits of such assays; conditions: source organism: Dengue virus 1 Singapore/S275/1990
Readout kind: Kd (µM)
Give the quantity in µM, number only.

Kd reading for SEHTGKEIV : 3.09

====

Recorded Kd by entry
target: HLA-B*57:01; test: IEDB peptide-MHC binding, purified MHC/direct/fluorescence; filed as Kd, often an IC50 or EC50 that approximates it; bounds were set here for any values at or beyond the usual limits of such assays; conditions: source organism: Mycobacterium tuberculosis

INSERT INTO results (entry_sequence, readout_kind, meas_value) VALUES
  ('SPREECGVF', 'Kd', '≥ 20 µM'),
  ('KLVGIELPK', 'Kd', '≥ 20 µM');

// SQAFNTPAL : Kd value = ≥ 20 µM

====

target: HLA-A*24:02; assay: IEDB peptide-MHC binding, purified MHC/competitive/radioactivity; filed as Kd, often an IC50 or EC50 that approximates it; bounds were set here for any values at or beyond the usual limits of such assays; settings: source organism: Mammarenavirus lassaense
Readout kind: pKd
To interpret pKd, take it as minus log10 of a concentration measured in moles per litre.

Per the record, CFISVNDRLV has pKd of 4.94

====

Measured pKd of individual entries
target: HLA-B*45:01; test: IEDB peptide-MHC binding, purified MHC/competitive/radioactivity; filed as Kd, often an IC50 or EC50 that approximates it; bounds were set here for any values at or beyond the usual limits of such assays; details: source organism: SARS coronavirus Tor2
# log scale: pKd equals minus log10 of the concentration in mol/L

Below: 6 sequences and their reported pKd.
INSERT INTO results (entry_sequence, meas_value) VALUES
  ('KETSYTTTI', 6.74),
  ('RERVNINIV', 6.58),
  ('NECAQVLSEM', 5.31),
  ('LEQWNLVIGF', 5.40),
  ('QESLTTTSTA', 7.40),
  ('QEAYYRARA', 7.82);

Consider ADYSVLYNST . Its measured pKd is 6.11

The value of pKd measured for the sequence QEIQLLAAVG turned out to be 6.92

The sequence listed as VESSSKLWA shows pKd equal to 6.57

====

biological target: HLA-A*31:01; test: IEDB peptide-MHC binding, purified MHC/direct/fluorescence; filed as Kd, often an IC50 or EC50 that approximates it; bounds were set here for any values at or beyond the usual limits of such assays; conditions: source organism: Influenza A virus (A/Hong Kong/514/97(H5N1))
pKd: −log10 of the molar value.
Readout kind: pKd

Looking up VSDGGPNLY , I see its pKd listed as ≤ 4.70

====

target: HLA-A*11:01; assay: IEDB peptide-MHC binding, purified MHC/direct/fluorescence; filed as Kd, often an IC50 or EC50 that approximates it; bounds were set here for any values at or beyond the usual limits of such assays; details: source organism: Campylobacter jejuni RM1221
Readout kind: Kd

Input KNDAVYIGY . Output Kd: ≥ 20 µM

====

target: HLA-A*24:02; assay: IEDB peptide-MHC binding, purified MHC/direct/fluorescence; filed as Kd, often an IC50 or EC50 that approximates it; bounds were set here for any values at or beyond the usual limits of such assays; conditions: source organism: Francisella tularensis subsp. holarctica LVS
Readout kind: Kd

The reported value for VYYIVVRDF in terms of Kd is 6.1 nM

====

target: HLA-B*58:01; experiment: IEDB peptide-MHC binding, purified MHC/direct/fluorescence; filed as Kd, often an IC50 or EC50 that approximates it; bounds were set here for any values at or beyond the usual limits of such assays; conditions: source organism: Bacillus anthracis str. A0488
Readout kind: pKd
// pKd: -log10(molar conc.)

# value of pKd, HLA-B*58:01, item IARQYEQEM = 4.82

====

target: HLA-A*11:01; test: IEDB peptide-MHC binding, purified MHC/competitive/radioactivity; filed as Kd, often an IC50 or EC50 that approximates it; bounds were set here for any values at or beyond the usual limits of such assays; settings: source organism: Dengue virus 3 Martinique/1243/1999
Readout kind: Kd (nM)
Note: unit nM is implicit; provide only the numeric part.

INSERT INTO measurements (entry_sequence, readout_kind, output_unit, meas_value) VALUES
  ('MILLTMKNK', 'Kd', 'nM', 1200),
  ('KVTEVRGYTK', 'Kd', 'nM', 201),
  ('GTSADLTVEK', 'Kd', 'nM', 219);

For record SSMINGVVK the listed Kd is 12.9

====

biological target: HLA-A*02:12; test: IEDB peptide-MHC binding, purified MHC/competitive/fluorescence; filed as Kd, often an IC50 or EC50 that approximates it; bounds were set here for any values at or beyond the usual limits of such assays; conditions: source organism: Vibrio cholerae 2740-80
pKd: −log10 of the molar value.
Readout kind: pKd

The reported pKd of the sequence CERYGFPAS was ≤ 4.70

====

biological target: HLA-B*08:01; assay: IEDB peptide-MHC binding, purified MHC/competitive/radioactivity; filed as Kd, often an IC50 or EC50 that approximates it; bounds were set here for any values at or beyond the usual limits of such assays; settings: source organism: Dengue virus 4 Dominica/814669/1981
Readout kind: pKd
// pKd: -log10(molar conc.)

Sample LNGRKRSTI , system: HLA-B*08:01. Its pKd is 6.87
